Tested on: Plasmodium falciparum
Test: GSK_TCMDC: Inhibition of Plasmodium falciparum 3D7 in whole red blood cells, using parasite LDH activity as an index of growth. Test compounds present at 2uM
Assay type: functional
Catalogue of molecules with associated Inhibition
// note: answer is a bare numeric in %

These recorded examples may help you get a feel for the data.
{"columns": ["Molecule", "Assay Result"],
 "data": [
  ["Cc1noc(-c2ccc(O)cc2O)c1-c1ccc2c(c1)OCCCO2", 100],
  ["O=C(NC1CCN(CCC[C@]2(c3ccc(Cl)c(Cl)c3)CCCN(C(=O)c3ccccc3)C2)CC1)c1ccc(Cl)cc1", 95]
]}

The value of Inhibition measured for the molecule N=C(NCC1CC1c1ccccc1)c1cccc(C(=N)NCC2CC2c2ccccc2)n1 (stereo unspecified) turned out to be 95

The value of Inhibition measured for the molecule COc1ccc(Nc2ncc3c(-c4cccc(NC(=O)Cc5cccnc5)c4)c[nH]c3n2)cc1OC turned out to be 98

The value of Inhibition measured for the molecule CCCCN(C(=O)c1ccccc1C)c1nnc(-c2ccccc2C)s1 turned out to be 92

The value of Inhibition measured for the molecule Cc1cc(N[C@@H](CC(C)C)C(=O)NC2CCCC2)nc(NCc2ccccc2C)n1.O=C(O)C(F)(F)F turned out to be 98

----------
Tested on: Plasmodium falciparum
Experiment: GSK_TCMDC: Inhibition of Plasmodium falciparum Dd2 in whole red blood cells, using parasite LDH activity as an index of growth. Test compounds present at 2uM
Type: functional
Catalogue of compounds with associated Inhibition
// note: answer is a bare numeric in %

These recorded examples may help you get a feel for the data.
{"columns": ["Compound", "Assay Result"],
 "data": [
  ["Cn1c(CN2CCC(N3CCc4cc(NC(=O)c5ccco5)ccc43)C2)cc2ccccc21 (stereo unspecified)", 92],
  ["Cc1nc(O)c2c(ccc3ccc(CNc4ccc(C(=O)N[C@@H](CCC(=O)O)C(=O)O)cc4)cc32)n1", 95],
  ["CCCCc1ccc(Cc2cnc3nc(N)nc(N)c3c2C)cc1", 5],
  ["CCN1CCC(NCc2ccc(-c3ccc(Cl)cc3)cc2)CC1", 33],
  ["COC(=O)c1cccc(CNCc2cccc(-c3cccc(-c4nc5cc(F)ccc5[nH]4)c3)c2)c1.O=C(O)C(F)(F)F", 52],
  ["COc1ccc2nccc([C@@H](O)CN3CCC(NCc4cc5ccc(Cl)cc5[nH]4)CC3)c2c1.O=C(O)C(=O)O", 61],
  ["CCN(CC)CCN(Cc1ccc(-c2ccc(C(F)(F)F)cc2)cc1)C(=O)Cn1c(CCc2ccc(F)c(C#N)c2)nc(=O)c2ccccc21.O=C(O)C(O)C(O)C(=O)O", 55],
  ["COc1ccc(CN2CCN(C(=O)c3cccs3)CC2)c(O)c1", 2]
]}

The value of Inhibition measured for the compound N=C(N)NC(=O)Nc1ccc(Cl)c(C(F)(F)F)c1 turned out to be 13

The value of Inhibition measured for the compound c1ccc(CNc2nc(NCCN3CCCCC3)nc3ccccc23)cc1 turned out to be 8

The value of Inhibition measured for the compound O=C(CCC1CCCC1)N(Cc1ccc(-c2ccc(CNCCc3ccccc3)cc2)cc1)C1CCCNC1.O=C(O)C(F)(F)F (stereo unspecified) turned out to be 71

----------
Catalogue of compounds with associated Inhibition
Test system: Plasmodium falciparum
Experiment: GSK_TCMDC: Inhibition of Plasmodium falciparum 3D7 in whole red blood cells, using parasite LDH activity as an index of growth. Test compounds present at 2uM
Format: functional
// note: answer is a bare numeric in %

{"columns": ["Compound", "Inhibition / %"],
 "data": [
  ["NC1CCN(Cc2ccc(-c3ccc(-c4nc5cc(F)ccc5[nH]4)cc3)cc2)C1.O=C(O)C(F)(F)F (configuration not stated)", 98]
]}

Entry Cn1cncc1C(=O)Nc1ccc(-c2cccc(-c3nc4cc(C(F)(F)F)ccc4[nH]3)c2)cc1 under Plasmodium falciparum had Inhibition of 100
